List of PDI values.
# ASSAY_OVERVIEW: Size and polydispersity index (PDI) of the lipid nanoparticle by dynamic light scattering
# Format: physicochemical
# CONDITION_PARAMETERS: LNP encapsulating eGFP mRNA, ionizable lipid/DOPE/cholesterol/DMG-PEG2000 50/10/48.25/1.25 mol%, N/P 12

Input: Could you share which PDI value was measured for CCCCCCCCCCCOC(=O)CCN(CCO)CCCN(CCC(=O)OCCCCCCCCCCC)CCC(=O)OCCCCCCCCCCC ?
Output: 0.20

Input: Could you share which PDI value was measured for CCCCCCCCCOC(=O)CCCCCCCN(CCO)CCCN(CCCCCCCC(=O)OCCCCCCCCC)CCCCCCCC(=O)OCCCCCCCCC ?
Output: 0.22

Input: Could you share which PDI value was measured for CCCCCCCCCCCOC(=O)CCCCN(CCO)CCCN(CCCCC(=O)OCCCCCCCCCCC)CCCCC(=O)OCCCCCCCCCCC [Example 38] ?
Output: 0.10

Input: Could you share which PDI value was measured for CCCCCC/C=C\COC(=O)CCCCCCCN(CCCO)CCCN(CCCCCCCC(=O)OC/C=C\CCCCCC)CCCCCCCC(=O)OC/C=C\CCCCCC ?
Output: 0.26

Input: Could you share which PDI value was measured for CCCCCCCCCCOC(=O)CCCN(CCCO)CCCN(CCCC(=O)OCCCCCCCCCC)CCCC(=O)OCCCCCCCCCC ?
Output: 0.14

Input: Could you share which PDI value was measured for CCCCCCCCCCCCCOC(=O)CCCCCN(CCCCO)CCCN(CCCCCC(=O)OCCCCCCCCCCCCC)CCCCCC(=O)OCCCCCCCCCCCCC ?
Output: 0.15

Input: Could you share which PDI value was measured for CCCCCCCCCCCCCOC(=O)CCCN(CCCO)CCCCN(CCCC(=O)OCCCCCCCCCCCCC)CCCC(=O)OCCCCCCCCCCCCC [Example 101] ?
Output: 0.14

###

# ASSAY_OVERVIEW: In vitro transfection of cells with eGFP-mRNA lipid nanoparticle (LNP preparation), fluorescence imaging and flow cytometry
# Assay type: cell-based, mouse
# CONDITION_PARAMETERS: mouse, dc2.4 cells, 200 ng of mRNA per well, after 24 hours; read-out: Cell viability, %
List of viability at 24 h values.
Reply with just the number (in %).

Some compounds with recorded viability at 24 h:
compound="CCCCCCCCCCCOC(=O)CCCCCCCN(CCO)CCCN(CCCCCCCC(=O)OCCCCCCCCCCC)CCCCCCCC(=O)OCCCCCCCCCCC [Example 1]" observable="viability at 24 h" readout_unit=% result=92
compound="CCCCCCCCCCCOC(=O)CCCN(CCO)CCCN(CCCC(=O)OCCCCCCCCCCC)C(=O)CCC(=O)OCCCCCCCCCCC [Example 109]" observable="viability at 24 h" readout_unit=% result=89
compound="CCCCCCCCCCCCOC(=O)CCCCCCN(CCO)CCCN(CCCCCCC(=O)OCCCCCCCCCCCC)CCCCCCC(=O)OCCCCCCCCCCCC [Example 47]" observable="viability at 24 h" readout_unit=% result=88.5

Field: next compound
Input: Could you share which viability at 24 h value was measured for CCCCCCCCCCCCCOC(=O)CN(CCCCO)CCCN(CC(=O)OCCCCCCCCCCCCC)CC(=O)OCCCCCCCCCCCCC [Example 78] ?
Output: 91.7

###

# ASSAY_OVERVIEW: Size and polydispersity index (PDI) of the lipid nanoparticle by dynamic light scattering
# Assay type: physicochemical
# CONDITION_PARAMETERS: LNP encapsulating eGFP mRNA, ionizable lipid/DOPE/cholesterol/DMG-PEG2000 50/10/48.25/1.25 mol%, N/P 12
List of PDI values.
Could you keep your reply to the number by itself?

Input: Could you share which PDI value was measured for CCCCCCCCCCCCCOC(=O)CCCN(CCCO)CCCCCN(CCCC(=O)OCCCCCCCCCCCCC)CCCC(=O)OCCCCCCCCCCCCC ?
Output: 0.16

###

# ASSAY_OVERVIEW: In vitro transfection of cells with eGFP-mRNA lipid nanoparticle (LNP preparation), fluorescence imaging and flow cytometry
# Assay type: cell-based, mouse
# CONDITION_PARAMETERS: mouse, dc2.4 cells, 200 ng of mRNA per well, after 24 hours; read-out: Cell viability, %
OBSERVABLE: viability at 24 h
# include the unit after the value

Some molecules with recorded viability at 24 h:
compound_string=CCCCCCCCCCCCCOC(=O)CCCCN(CCCO)CCCN(CCCCC(=O)OCCCCCCCCCCCCC)CCCCC(=O)OCCCCCCCCCCCCC result=97.7%
compound_string=CCCCCCCCCCCOC(=O)CCCCCN(CCO)CCCN(CCCCCC(=O)OCCCCCCCCCCC)CCCCCC(=O)OCCCCCCCCCCC result=84.3%
compound_string=CCCCC/C=C\C/C=C\CCCCCCCCOC(=O)CCCCCCCN(CCCO)CCCN(CCCCCCCC(=O)OCCCCCCCC/C=C\C/C=C\CCCCC)CCCCCCCC(=O)OCCCCCCCC/C=C\C/C=C\CCCCC result=95.9%
compound_string=CCCCCCCCCCCCCOC(=O)CCCCCCN(CCCCO)CCCN(CCCCCCC(=O)OCCCCCCCCCCCCC)CCCCCCC(=O)OCCCCCCCCCCCCC result=97.2%
compound_string=CCCCCCCCCCCCCCOC(=O)CCCCCN(CCCO)CCCN(CCCCCC(=O)OCCCCCCCCCCCCCC)CCCCCC(=O)OCCCCCCCCCCCCCC result=75.9%
compound_string=CCCCCCCCCCCOC(=O)CCCCN(CCCCO)CCCN(CCCCC(=O)OCCCCCCCCCCC)CCCCC(=O)OCCCCCCCCCCC result=88.2%
compound_string=CCCCCOC(=O)CCCCCCCN(CCO)CCCN(CCCCCCCC(=O)OCCCCC)CCCCCCCC(=O)OCCCCC result=86.6%
compound_string=CCCCCCCCCCCCOC(=O)CCCCCN(CCCCO)CCCN(CCCCCC(=O)OCCCCCCCCCCCC)CCCCCC(=O)OCCCCCCCCCCCC result=97.4%
compound_string=CCCCC/C=C\C/C=C\CCCCCCCCOC(=O)CCCCCCN(CCCO)CCCN(CCCCCCC(=O)OCCCCCCCC/C=C\C/C=C\CCCCC)CCCCCCC(=O)OCCCCCCCC/C=C\C/C=C\CCCCC result=93.4%
compound_string=CCCCCCCCCCCCOC(=O)CCCCCCCN(CCCO)CCCN(CCCCCCCC(=O)OCCCCCCCCCCCC)CCCCCCCC(=O)OCCCCCCCCCCCC result=92%

Input: Could you share which viability at 24 h value was measured for CCCCCCCCCCCCOC(=O)CCCCCCCN(CCCCO)CCCN(CCCCCCCC(=O)OCCCCCCCCCCCC)CCCCCCCC(=O)OCCCCCCCCCCCC ?
Output: 82.9%

Input: Could you share which viability at 24 h value was measured for CCCCCCCCCCCOC(=O)CN(CCO)CCCN(CC(=O)OCCCCCCCCCCC)CC(=O)OCCCCCCCCCCC ?
Output: 84.1%

Input: Could you share which viability at 24 h value was measured for CCCCCC/C=C\COC(=O)CCCCCCCCCN(CCO)CCCN(CCCCCCCCCC(=O)OC/C=C\CCCCCC)CCCCCCCCCC(=O)OC/C=C\CCCCCC ?
Output: 84.4%

Input: Could you share which viability at 24 h value was measured for CCCCCCCCCCCCOC(=O)CCCN(CCCO)CCCN(CCCC(=O)OCCCCCCCCCCCC)CCCC(=O)OCCCCCCCCCCCC ?
Output: 92.3%

Input: Could you share which viability at 24 h value was measured for CCCCCCCCCCCOC(=O)CCCN(CCCO)CCCN(CCCC(=O)OCCCCCCCCCCC)CCCC(=O)OCCCCCCCCCCC ?
Output: 64.6%

Input: Could you share which viability at 24 h value was measured for CCCCCCCCCCCCOC(=O)CCCN(CCCO)CCCCN(CCCC(=O)OCCCCCCCCCCCC)CCCC(=O)OCCCCCCCCCCCC ?
Output: 95.3%

Input: Could you share which viability at 24 h value was measured for CCCCCCCCCCCOC(=O)CCCN(CCCO)CCCCN(CCCC(=O)OCCCCCCCCCCC)CCCC(=O)OCCCCCCCCCCC ?
Output: 76%

Input: Could you share which viability at 24 h value was measured for CCCCCCCCCCCCCOC(=O)CCCN(CCO)CCCN(CCCC(=O)OCCCCCCCCCCCCC)CCCC(=O)OCCCCCCCCCCCCC ?
Output: 59%

Input: Could you share which viability at 24 h value was measured for CCCCCCCCCCCOC(=O)CCCCCCCN(CCCO)CCCN(CCCCCCCC(=O)OCCCCCCCCCCC)CCCCCCCC(=O)OCCCCCCCCCCC ?
Output: 90.6%

Input: Could you share which viability at 24 h value was measured for CCCCCCCCCCCOC(=O)CCCCCCCN(CCCCO)CCCN(CCCCCCCC(=O)OCCCCCCCCCCC)CCCCCCCC(=O)OCCCCCCCCCCC ?
Output: 83.8%
